Target: T1, OX40 on a functional cell line overexpressing OX40 (UniProt P43489 29-277, limits assumed)
T1 sequence (looked up): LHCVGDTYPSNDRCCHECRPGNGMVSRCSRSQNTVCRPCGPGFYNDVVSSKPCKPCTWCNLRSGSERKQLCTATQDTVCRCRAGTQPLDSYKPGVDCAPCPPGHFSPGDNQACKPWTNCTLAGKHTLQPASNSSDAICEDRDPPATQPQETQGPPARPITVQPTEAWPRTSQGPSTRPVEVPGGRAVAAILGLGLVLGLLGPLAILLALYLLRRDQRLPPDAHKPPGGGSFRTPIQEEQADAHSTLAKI
Assay: cell-based or functional assay
Measured metric: IL-8 secretion by OX40 overexpressing functional cell line, best-fit value Bottom

| Binder | Reading |
| --- | --- |
| AH02913 humanized anti-human OX40 monoclonal antibody (recombinant human IgG1/kappa) (antibody, V domains shown) VH: QVQLVQSGPEVKKPGASVKVSCKASGYTFTDYSMHWVKQAPGQGLEWMGWISTETGEPTYADDFKGRVTITLDTSASTAYMELSSLRSEDTAVYFCARVRPWYLAVWGQGTLVTVSS VL: DIQMTQSPSSLSASVGDRVTITCRASQDISNYLNWYQQKPGKAVKLLIYYTSRLYSGVPSRFSGSGSGTDYTFTISSLQPEDIATYFCQQANTLPLTFGGGTKLEIK | 3950 |
| AH02923 humanized anti-human OX40 monoclonal antibody (recombinant human IgG1/kappa) (antibody, V domains shown) VH: QVQLVQSGAEVKKPGASVKVSCKASGYTFTDYSMHWVRQAPGQGLEWMGWISTETGEPTYADDFKGRFTFTLDTSASTAYLELSSLRSEDTAVYYCARVRPWYLAVWGQGTLVTVSS VL: DIQMTQSPSSLSASVGDRVTITCRASQDISNYLNWYQQKPGKAVKLLIYYTSRLYSGVPSRFSGSGSGTDYTFTISSLQPEDIATYYCQQANTLPLTFGGGTKLEIK | 3350 |
